molecular target: dopamine D-1 receptor; details: read-out: EC50 (agonist activity in adenylate cyclase assay); tissue from goldfish retina or rat striatum
Outcome measure: EC50 (µM)

INSERT INTO results (compound, unit_of_measurement, numeric_result) VALUES
  ('C=CCNC[C@H]1O[C@@H](C23CC4CC(CC(C4)C2)C3)Cc2c1ccc(O)c2O (relative stereo) [Example 117]', 'µM', 0.08);

[I] CC(C)C[C@@H]1Cc2c(ccc(O)c2O)[C@H](CN)O1 (relative stereo) [Example 89]
[II] CNC[C@@H]1O[C@H](C2(c3ccccc3)CCCCC2)Cc2c1ccc(O)c2O (relative stereo) [Example 225]
Exercise: Hi, I'm comparing two records. Which one has the lower EC50, I or II ? Returns: label corresponding to the selected item.
Key: I
(I: 0.007 µM, II: 0.13 µM)

[1] CN1CCC2=C(C1)c1ccc(O)c(O)c1CC21CCCCC1 [Example 212]
[2] CCC1Cc2c(ccc(O)c2O)C(CN)O1 (stereo not drawn) [Example 67]
Exercise: From the recorded data, which exceeds the other in EC50: 1 or 2 ? Returns: label corresponding to the selected item.
Key: 1
(1: 0.48 µM, 2: 0.23 µM)

[a] NC[C@@H]1O[C@H](CCOCc2ccccc2)Cc2c1ccc(O)c2O (relative stereo) [Example 77]
[b] CC(=O)NCC[C@H]1Cc2c(ccc(O)c2O)[C@@H](CN)O1 (relative stereo) [Example 172]
Exercise: Hi, I'm comparing two records. Which one has the lower EC50, a or b ? Returns: label corresponding to the selected item.
Key: a
(a: 0.093 µM, b: 0.22 µM)

[I] NCC1CC2(CCCCCCCCC2)Cc2c1ccc(O)c2O (stereo not drawn) [Example 237]
[II] Oc1ccc2c(c1O)CC1(CCCCCCCCC1)C1=C2CNCC1 [Example 240]
Exercise: Hi, I'm comparing two records. Which one has the lower EC50, I or II ? Returns: label corresponding to the selected item.
Key: II
(II: 0.13 µM, I: 1.9 µM)

[1] NCC1OC2(CCCCCCCC2)Cc2c1ccc(O)c2O (stereo not drawn) [Example 221]
[2] CCCC(=O)Oc1ccc2c(c1OC(=O)CCC)CC(c1ccccc1)C=C2CN (stereo not drawn) [Example 17]
Exercise: Hi, I'm comparing two records. Which one has the lower EC50, 1 or 2 ? Returns: label corresponding to the selected item.
Key: 1
(1: 0.08 µM, 2: 2.8 µM)

[A] CCCC[C@H]1Cc2c(ccc(O)c2O)[C@@H](CNC)O1 (relative stereo) [Example 135]
[B] NCC1=CC2(CCCCCCCCC2)Cc2c1ccc(O)c2O [Example 234]
Exercise: From the recorded data, which exceeds the other in EC50: A or B ? Returns: label corresponding to the selected item.
Key: B
(B: 2.7 µM, A: 0.007 µM)

[P] CCOC(=O)Oc1ccc2c(c1OC(=O)OCC)CC(c1ccccc1)C=C2CN (stereo not drawn) [Example 29]
[Q] CC(C)OC(=O)CCC(=O)Oc1ccc2c(c1OC(=O)CCC(=O)OC(C)C)CC(c1ccccc1)C=C2CN (stereo not drawn) [Example 24]
Exercise: From the recorded data, which exceeds the other in EC50: P or Q ? Returns: label corresponding to the selected item.
Key: P
